# Test system: NCI-H460 lung
# ASSAY SUMMARY: NCI-60 one-dose screen, 48 h
# EXPERIMENTAL CONTEXT: 10 µM unless noted
Compounds without any hit were thinned out: in the full panel of roughly 83,000, 20% have a hit. Calls of active or inactive are those of the source. Rule for the calls: active = growth percent below 10; inactive = the rest.
Please reply with one of these outcomes: active, inactive

COc1cc2nc(N3CCCC3)nc(NCC3CCCCC3)c2cc1OC
active
Oc1cccc2ccc(N/N=C/c3cc(CN4CCOCC4)c(O)c4ncccc34)nc12
active
FC(F)(F)c1ccc(-c2cn3nc(-c4c[nH]c5ccc(Br)cc45)sc3n2)cc1
inactive
O=C(O)COc1ccc(Cl)cc1C1CCCCC1
inactive
Fc1ccc(CNc2cccc3[nH]c(C(F)(F)F)nc23)cc1
inactive
COc1cc2c(cc1O)CC[C@@H]1[C@@H]2CC[C@]2(C)[C@@H](NCCN(C)C)CC[C@@H]12
active
C=CC(=O)Nc1cccc(-c2nc(SC)nc(NCc3ccccc3)c2C#N)c1
inactive
O=C(N/N=C/c1c[nH]c2ccccc12)c1cc(-c2ccccc2)on1
inactive

INPUT: # lookup: test call for "CCOC(=O)n1cc(-c2nonc2-c2cn(C)c3ncccc23)c2ccccc21"
OUTPUT: inactive

INPUT: What outcome does the record of this test show for "COc1ccc(-c2nc3ccc(-c4nc5ccc(N6CCN(c7ccncc7)CC6)cc5[nH]4)cc3[nH]2)cc1OC" ?
OUTPUT: inactive

====

# Test system: RXF 393 renal
# ASSAY SUMMARY: NCI-60 one-dose screen, 48 h (100 = growth as untreated, 0 = no growth, -100 = all killed)
# EXPERIMENTAL CONTEXT: 10 µM unless noted
The panel holds about 83,000 compounds, 20% with a hit somewhere; the sample as a whole holds those more often. Calls of active or inactive are those of the source. How the source made its calls: active means growth percent below 10; inactive means the rest.
Give measured growth for each item. Keep answers brief.

Items follow; give growth for each.
1. COC(=O)[C@@H]1CCCN1C(=O)[C@@H]1CCCN1C(=O)[C@H](Cc1ccccc1)NC(=S)Nc1cc(C(F)(F)F)cc(C(F)(F)F)c1
2. O=C(O)c1c(=O)cccc2ssc12

OUTPUT:
1: 83.8% (inactive); 2: -66.8% (active)

====

Kindly supply the reported growth values for the records listed here.
# Test system: MOLT-4 leukemia
# ASSAY SUMMARY: NCI-60 one-dose screen, 48 h (100 = growth as untreated, 0 = no growth, -100 = all killed)
# EXPERIMENTAL CONTEXT: 10 µM unless noted
The panel holds about 83,000 compounds, 20% with a hit somewhere; the sample as a whole holds those more often.
Numbers only, in %.

CCOC(=O)c1c(C)oc2ncnc(N3CCN(C(=O)COc4ccc(SC)cc4)CC3)c12
88.6
CC(=O)O[C@H]1[C@@H]2OC(=O)C(CSc3ccccc3)[C@@H]2C[C@H]2O[C@]2(C)CC/C=C(\C)CCC[C@@H]1C (stereo not given in full)
22.7
COc1cc2c(cc1-c1c(C)noc1C)ncc1nc(C3CCC(F)(F)CC3)n([C@H](C)COC(F)F)c12
48.9
C=CC(COC(c1ccccc1)(c1ccccc1)c1ccccc1)N(CC)CC (stereo not given)
8.88

Quick one: give me growth for each item below, same order please.
1. O=CNc1ccc2c(c1)Cc1cccc(NC=O)c1-2
2. COc1ccc(C(=O)c2sc3nc(C)cc(C)c3c2N)cc1OC
3. O=C(/C=C/c1cc(CN2CCOCC2)c(O)c2ncccc12)c1cc(CN2CCOCC2)c(O)c2ncccc12
4. COc1cc(-c2nc(C(=O)NCC(=O)NO)nn2-c2ccc(Cl)cc2)cc(OC)c1OC
5. COc1cc2nc(N3CCCC3)nc(Nc3ccccc3)c2cc1OC

OUTPUT:
75
96.4
31.1
97.4
-24.7

====

# System: UO-31 renal
# ASSAY SUMMARY: NCI-60 one-dose screen, 48 h (100 = growth as untreated, 0 = no growth, -100 = all killed)
# EXPERIMENTAL CONTEXT: 10 µM unless noted
This is part of a sample that, as a whole, favours compounds with a hit. Of some 83,000 tested, about 20% had one in any assay.
Response field label takes MET when growth is strictly below 90% and NOT MET in all other cases.

Some solved cases for reference:
COc1cc(-c2nc3cc(Cl)c(Cl)cc3[nH]2)ccc1OCC(=O)N=Nc1c(O)[nH]c2ccccc12
NOT MET
O=c1c2c3c(sc2nc(N/N=C/c2cn(-c4ccccc4)nc2-c2ccc(Cl)cc2)n1Cc1ccccc1)CCCC3
NOT MET
N#Cc1c(-c2ccc(Cl)cc2)nc(NN=Cc2ccco2)nc1N1CCOCC1
MET
CN1CCN=C1c1ccc(NC(=O)c2ccc(C(=O)Nc3ccc(C4=NCCN4C)cc3)cc2)cc1
MET

INPUT: Please state whether growth is below 90% for "N#CN1CCC[C@H]1C(=O)N1CCc2c(-c3[nH]nc4ncccc34)cccc21"
OUTPUT: MET

====

# Tested on: SN12C renal
# ASSAY SUMMARY: NCI-60 one-dose screen, 48 h (100 = growth as untreated, 0 = no growth, -100 = all killed)
# EXPERIMENTAL CONTEXT: 10 µM unless noted
Compounds without any hit were thinned out: in the full panel of roughly 83,000, 20% have a hit. Active and inactive are the calls of the source. The calls were made as follows: active = growth percent below 10; inactive = the rest.
READOUT: growth

CCCc1cc(=O)n2c(C(=O)Nc3ccc(F)cc3)c(C(=O)Nc3ccc(F)cc3)sc2n1
65.7% [30 µM] (inactive)
CCCCn1cnc2c(Sc3c([N+](=O)[O-])ncn3C)nc(N)nc21
97.6% (inactive)

The following compounds each have a reported value; give each one's growth.
1. CC1CCNC(C)C1 (stereo unspecified)
2. Clc1ccc2c(NCCCCNc3nc(N4CCOCC4)nc4ccccc34)ccnc2c1
3. FC(F)(F)c1[nH]ncc1-c1nc2ccc3n[nH]c(C#Cc4cccnc4)c3c2c2c1CCCC2
4. CNc1ccc(-c2cc(=O)oc3ccc(Cl)cc23)cc1

OUTPUT:
["103% (inactive)", "-8.57% (active)", "37.9% (inactive)", "29.9% (inactive)"]

====

# Tested on: MALME-3M melanoma
# ASSAY SUMMARY: NCI-60 one-dose screen, 48 h (100 = growth as untreated, 0 = no growth, -100 = all killed)
# EXPERIMENTAL CONTEXT: 10 µM unless noted
About 83,000 compounds went through this panel and 20% of them were active in at least one assay; those are over-represented in the sample as a whole.
Categories are defined by ranges of growth, namely bucket A = under 60%, bucket B = from 60% up to 90%, bucket C = 90% and over

// below: answered compounds
Nc1n[nH]c2ccc([C@@H]3Nc4ccc5cn[nH]c5c4[C@H]4C5CCC(C5)[C@@H]34)cc12 (some centres undefined)
bucket A
COc1ccc(/C=C\c2cc(OC)c(OC)c(OC)c2)cc1OC(=O)c1cccc(Cn2cc(CCOC(=O)[C@H](N)Cc3cn(C)c4ccccc34)nn2)c1
bucket B
O=C(O)c1ccc(N=CC(=O)c2ccc(-c3ccccc3)cc2)cc1
bucket C

INPUT: # bin label for "COc1cccc(/C=C2\Oc3cc(OCCN4CCCC4)ccc3C2=O)c1"
OUTPUT: bucket C

INPUT: Entry "O=C1NC(=S)NC(=O)C1CC(=O)n1c(-c2ccccc2)nc2ccccc21" belongs to which category?
OUTPUT: bucket C

====

# System: KM12 colon
# ASSAY SUMMARY: NCI-60 one-dose screen, 48 h
# EXPERIMENTAL CONTEXT: 10 µM unless noted
# Experimental: Growth inhibition of the KM12 human tumor cell line is measured as a screen for anti-cancer activity. Cells are grown in 96 well plates and exposed to the test compound for 48 hours. Compounds are tested at a single concentration, which is 10^-5 M for most compounds. The reported endpoint is percent growth (GI% or GIPRCNT), where numbers from 0 - 100% represent growth inhibition, and numbers from -100% - 0 represent cell death. For example, a value of 40 represents 60% growth inhibition. […]
This is part of a sample that, as a whole, favours compounds with a hit. Of some 83,000 tested, about 20% had one in any assay. Active and inactive are the calls of the source. How the source made its calls: active means growth percent below 10; inactive means the rest.
Allowed answers: t for active, f for inactive

Here's what some known entries look like.
COC(=O)[C@]12CCC(C)(C)C[C@H]1[C@H]1C(=O)C[C@@H]3[C@@]4(C)c5c([nH]c6ccccc6c5=O)C(C)(C)[C@@H]4CC[C@@]3(C)[C@]1(C)CC2
f
Cc1ccc(NS(=O)(=O)c2ccc(-c3cnc(C4CC4)o3)cc2)cc1C
f

INPUT: Hi, do you know how "COc1cc(-c2nn(-c3ccc(C(=O)O)cc3)cc2C(=O)O)ccc1O" came out in this test?
OUTPUT: f

INPUT: // outcome(item) with item = "Cc1ccc(OC(=O)c2ccc(Cl)cc2)cc1"
OUTPUT: f

INPUT: Hey, what did the test say about "COc1ccc(N=Nc2nccs2)c(O)c1" ?
OUTPUT: f

INPUT: Dear colleague, could you share the recorded outcome for "COc1cc(/C=C/C(=O)c2c(C)oc3nc[nH]c(=O)c23)cc(OC)c1OC" when you have a moment?
OUTPUT: f
